- TEST_TARGET: serine acetyltransferase
- METHOD_NOTES: Serine acetyltransferase enzyme activity test with and without L-cysteine (inhibitor constant Ki, specific activity)
- Type: biochemical, E. coli
- REPORTED_CONDITIONS: Table 2; alleles from chemical mutagenesis; inhibitor L-cysteine
ASSAY_ENDPOINT: pKi
Reminder that pKi means the negative base-10 logarithm of the concentration expressed in mol/L.

cysEXI: double mutant Thr167->Ala167, Gly245->Ser245 (protein, UniProt P0A9D4 1-273, looked up, variant T167A G245S) Serine acetyltransferase: MSCEELEIVWNNIKAEARTLADCEPMLASFYHATLLKHENLGSALSYMLANKLSSPIMPAIAIREVVEEAYAADPEMIASAACDIQAVRTRDPAVDKYSTPLLYLKGFHALQAYRIGHWLWNQGRRALAIFLQNQVSVTFQVDIHPAAKIGRGIMLDHATGIVVGEAAVIENDVSILQSVTLGGTGKSGGDRHPKIREGVMIGAGAKILGNIEVGRGAKIGAGSVVLQPVPPHTTAAGVPARIVSKPDSDKPSMDMDQHFNGINHTFEYGDGI | 3.15

Next, consider the following molecule.
State the recorded pKi for this entry: cysEIII: feedback-resistant serine acetyltransferase allele, Gly165->Asp165 (protein, UniProt P0A9D4 1-273, looked up, variant G165D) Serine acetyltransferase: MSCEELEIVWNNIKAEARTLADCEPMLASFYHATLLKHENLGSALSYMLANKLSSPIMPAIAIREVVEEAYAADPEMIASAACDIQAVRTRDPAVDKYSTPLLYLKGFHALQAYRIGHWLWNQGRRALAIFLQNQVSVTFQVDIHPAAKIGRGIMLDHATGIVVDETAVIENDVSILQSVTLGGTGKSGGDRHPKIREGVMIGAGAKILGNIEVGRGAKIGAGSVVLQPVPPHTTAAGVPARIVGKPDSDKPSMDMDQHFNGINHTFEYGDGI 5.00
